# Tested On: LHCGR (Homo sapiens)
# Construct: purchased Promega (in-house HiBiT-GPCR construct library, NanoBRET)
# Sequence (P22888 27-699): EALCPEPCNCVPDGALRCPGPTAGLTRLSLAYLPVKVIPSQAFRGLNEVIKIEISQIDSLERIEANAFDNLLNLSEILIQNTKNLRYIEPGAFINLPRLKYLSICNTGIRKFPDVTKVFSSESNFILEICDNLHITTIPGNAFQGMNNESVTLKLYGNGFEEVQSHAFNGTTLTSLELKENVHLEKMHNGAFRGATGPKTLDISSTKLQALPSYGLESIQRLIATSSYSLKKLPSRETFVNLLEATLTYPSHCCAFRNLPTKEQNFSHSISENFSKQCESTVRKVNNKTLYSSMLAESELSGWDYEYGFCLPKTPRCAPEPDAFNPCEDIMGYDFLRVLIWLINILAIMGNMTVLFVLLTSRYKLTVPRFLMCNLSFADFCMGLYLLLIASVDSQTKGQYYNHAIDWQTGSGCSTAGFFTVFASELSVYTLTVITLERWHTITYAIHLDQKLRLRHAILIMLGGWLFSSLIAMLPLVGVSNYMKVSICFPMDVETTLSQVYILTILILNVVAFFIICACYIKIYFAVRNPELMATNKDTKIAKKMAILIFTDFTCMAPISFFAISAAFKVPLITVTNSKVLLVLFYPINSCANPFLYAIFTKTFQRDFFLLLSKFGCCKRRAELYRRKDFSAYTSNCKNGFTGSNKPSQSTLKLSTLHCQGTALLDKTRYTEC
# Experimental Details: NanoBRET screen HiBiT-LHCGR in HEK293
# Assay type: binding
# Stated Conditions: LHCGR; tracer 1μM
Would you kindly list NanoBRET Fold Response for each of these compounds?

Form: Entry = O=C(CCc1ccc2n1[B-](F)(F)[N+]1=C(c3ccc[nH]3)C=CC1=C2)NCc1ccc(C(=O)NCCOCCC(=O)N[C@@H]2CC[C@@]3(O)[C@H]4Cc5ccc(O)c6c5[C@@]3(CCN4CC3CC3)[C@H]2O6)cc1 [Naltrexone-3-NB590] | System = LHCGR (Homo sapiens) | NanoBRET Fold Response = ____
1.12

Form: Entry = Cc1nc2n(c(=O)c1CCN1CCC(c3noc4cc(F)ccc34)CC1)CCCC2OC(=O)NCCOCCOCCOCCOCCNC(=O)CCc1ccc2n1[B-](F)(F)[N+]1=C(c3ccc[nH]3)C=CC1=C2 (stereo not shown) [Risperidone-2-NB590] | System = LHCGR (Homo sapiens) | NanoBRET Fold Response = ____
1.04

Form: Entry = CC(C)N(CC[C@H](c1ccccc1)c1cc(CCNC(=O)c2ccc(CNC(=O)CCc3ccc4n3[B-](F)(F)[N+]3=C(c5ccc[nH]5)C=CC3=C4)cc2)ccc1O)C(C)C [Tolterodine-BZ-NB590] | System = LHCGR (Homo sapiens) | NanoBRET Fold Response = ____
1.05

Form: Entry = CCCn1c(=O)c2[nH]c(-c3ccc(OCC(=O)NCCNC(=O)CCOCCNC(=O)c4ccc(CNC(=O)CCc5ccc6n5[B-](F)(F)[N+]5=C(c7ccc[nH]7)C=CC5=C6)cc4)cc3)nc2n(CCC)c1=O [XAC-3-NB590] | System = LHCGR (Homo sapiens) | NanoBRET Fold Response = ____
1.00

---

# Tested On: CXCR1 (Homo sapiens, UniProt P25024)
# Construct: purchased Promega (in-house HiBiT-GPCR construct library, NanoBRET)
# Sequence (P25024 whole entry): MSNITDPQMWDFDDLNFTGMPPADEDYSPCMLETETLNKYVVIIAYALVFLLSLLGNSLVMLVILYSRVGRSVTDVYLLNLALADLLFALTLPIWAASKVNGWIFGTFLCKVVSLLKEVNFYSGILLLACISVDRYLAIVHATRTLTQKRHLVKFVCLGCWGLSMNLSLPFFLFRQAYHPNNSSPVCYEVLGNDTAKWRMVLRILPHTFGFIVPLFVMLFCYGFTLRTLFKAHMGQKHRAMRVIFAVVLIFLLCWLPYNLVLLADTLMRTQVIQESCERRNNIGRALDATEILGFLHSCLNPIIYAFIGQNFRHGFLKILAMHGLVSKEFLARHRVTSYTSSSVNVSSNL
# Experimental Details: NanoBRET screen HiBiT-CXCR1 in HEK293
# Assay type: binding
# Stated Conditions: CXCR1; tracer 0.1μM
Would you kindly list NanoBRET Fold Response for each of these compounds?
Output spec: single numeric token, no unit.

Tell me the measured NanoBRET Fold Response of O=C(CCOCCOCCOCCOCCNC(=O)CCc1ccc2n1[B-](F)(F)[N+]1=C(c3ccc[nH]3)C=CC1=C2)NCCCN1CCN(C2=Nc3ccccc3Oc3ccc(Cl)cc32)CC1 , please.
1.02

Tell me the measured NanoBRET Fold Response of Cc1nc2n(c(=O)c1CCN1CCC(c3noc4cc(F)ccc34)CC1)CCCC2OC(=O)NCCOCCOCCOCCOCCNC(=O)CCc1ccc2n1[B-](F)(F)[N+]1=C(c3ccc[nH]3)C=CC1=C2 (stereo not drawn) , please.
1.01

Tell me the measured NanoBRET Fold Response of O=C(CCc1ccc2n1[B-](F)(F)[N+]1=C(c3ccc[nH]3)C=CC1=C2)NCc1ccc(C(=O)NCCOCCC(=O)N[C@@H]2CC[C@@]3(O)[C@H]4Cc5ccc(O)c6c5[C@@]3(CCN4CC3CC3)[C@H]2O6)cc1 [Naltrexone-3-NB590] , please.
0.95

Tell me the measured NanoBRET Fold Response of CCCn1c(=O)c2[nH]c(-c3ccc(OCC(=O)NCCNC(=O)CCOCCNC(=O)c4ccc(CNC(=O)CCc5ccc6n5[B-](F)(F)[N+]5=C(c7ccc[nH]7)C=CC5=C6)cc4)cc3)nc2n(CCC)c1=O , please.
1.05

Tell me the measured NanoBRET Fold Response of Cc1cc2c(s1)Nc1ccccc1N=C2N1CCN(CCCNC(=O)CCOCCOCCOCCOCCNC(=O)CCc2ccc3n2[B-](F)(F)[N+]2=C(c4ccc[nH]4)C=CC2=C3)CC1 , please.
1.00

Tell me the measured NanoBRET Fold Response of N#CN=C(NCCCOc1cccc(CN2CCCCC2)c1)NCCNC(=O)CCOCCOCCOCCOCCNC(=O)CCc1ccc2n1[B-](F)(F)[N+]1=C(c3ccc[nH]3)C=CC1=C2 , please.
1.03

---

# Tested On: DRD2 (Homo sapiens, UniProt P14416)
# Construct: purchased Promega (in-house HiBiT-GPCR construct library, NanoBRET)
# Sequence (P14416 whole entry): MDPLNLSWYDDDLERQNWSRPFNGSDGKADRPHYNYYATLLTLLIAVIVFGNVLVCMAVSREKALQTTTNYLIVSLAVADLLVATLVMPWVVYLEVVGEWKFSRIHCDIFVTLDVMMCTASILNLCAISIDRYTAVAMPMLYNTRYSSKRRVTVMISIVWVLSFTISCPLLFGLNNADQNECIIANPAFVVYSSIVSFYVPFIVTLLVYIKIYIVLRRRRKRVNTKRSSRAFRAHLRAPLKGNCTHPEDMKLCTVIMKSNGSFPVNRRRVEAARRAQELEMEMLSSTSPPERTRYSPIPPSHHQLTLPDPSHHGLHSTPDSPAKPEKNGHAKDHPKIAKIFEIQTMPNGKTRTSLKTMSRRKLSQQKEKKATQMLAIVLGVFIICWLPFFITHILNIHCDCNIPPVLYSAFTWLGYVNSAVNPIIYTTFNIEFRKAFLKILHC
# Experimental Details: NanoBRET screen HiBiT-DRD2 in HEK293
# Format: binding
# Stated Conditions: DRD2; tracer 0.1μM
Would you kindly list NanoBRET Fold Response for each of these compounds?
Output spec: single numeric token, no unit.

Form: Entry = CC(C)N(CC[C@H](c1ccccc1)c1cc(CCNC(=O)CCOCCOCCOCCOCCNC(=O)CCc2ccc3n2[B-](F)(F)[N+]2=C(c4ccc[nH]4)C=CC2=C3)ccc1O)C(C)C | System = DRD2 (Homo sapiens, UniProt P14416) | NanoBRET Fold Response = ____
1.07

Form: Entry = Cc1nc2n(c(=O)c1CCN1CCC(c3noc4cc(F)ccc34)CC1)CCCC2OC(=O)NCCOCCOCCOCCOCCNC(=O)CCc1ccc2n1[B-](F)(F)[N+]1=C(c3ccc[nH]3)C=CC1=C2 (stereo not drawn) | System = DRD2 (Homo sapiens, UniProt P14416) | NanoBRET Fold Response = ____
2.85

Form: Entry = Cc1cc2c(s1)Nc1ccccc1N=C2N1CCN(CCCNC(=O)CCOCCOCCOCCOCCNC(=O)CCc2ccc3n2[B-](F)(F)[N+]2=C(c4ccc[nH]4)C=CC2=C3)CC1 | System = DRD2 (Homo sapiens, UniProt P14416) | NanoBRET Fold Response = ____
1.98

---

# Tested On: SSTR4 (Homo sapiens)
# Construct: purchased Promega (in-house HiBiT-GPCR construct library, NanoBRET)
# Sequence (P31391 whole entry): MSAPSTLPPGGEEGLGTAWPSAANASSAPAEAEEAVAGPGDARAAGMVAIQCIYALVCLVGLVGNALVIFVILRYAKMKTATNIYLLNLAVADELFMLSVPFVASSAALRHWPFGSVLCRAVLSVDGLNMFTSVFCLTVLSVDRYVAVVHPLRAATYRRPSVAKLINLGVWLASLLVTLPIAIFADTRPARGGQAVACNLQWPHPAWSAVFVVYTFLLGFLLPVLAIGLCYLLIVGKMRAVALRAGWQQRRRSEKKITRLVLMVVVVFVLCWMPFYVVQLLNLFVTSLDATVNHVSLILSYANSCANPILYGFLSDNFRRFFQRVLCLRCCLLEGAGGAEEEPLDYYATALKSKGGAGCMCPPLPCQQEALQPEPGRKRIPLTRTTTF
# Experimental Details: NanoBRET screen HiBiT-SSTR4 in HEK293
# Format: binding
# Stated Conditions: SSTR4; tracer 1μM
Measured Quantity: NanoBRET Fold Response
Output spec: single numeric token, no unit.

Form: Entry = COc1ccccc1N1CCN(CCCCN2C(=O)c3ccc(CNC(=O)CCOCCNC(=O)c4ccc(CNC(=O)CCc5ccc6n5[B-](F)(F)[N+]5=C(c7ccc[nH]7)C=CC5=C6)cc4)cc3C2=O)CC1 | System = SSTR4 (Homo sapiens) | NanoBRET Fold Response = ____
1.05

Form: Entry = Cc1cc2c(s1)Nc1ccccc1N=C2N1CCN(CCCNC(=O)CCOCCOCCOCCOCCNC(=O)CCc2ccc3n2[B-](F)(F)[N+]2=C(c4ccc[nH]4)C=CC2=C3)CC1 | System = SSTR4 (Homo sapiens) | NanoBRET Fold Response = ____
1.04

Form: Entry = O=C(CCOCCOCCOCCOCCNC(=O)CCc1ccc2n1[B-](F)(F)[N+]1=C(c3ccc[nH]3)C=CC1=C2)NCCCN1CCN(C2=Nc3ccccc3Oc3ccc(Cl)cc32)CC1 | System = SSTR4 (Homo sapiens) | NanoBRET Fold Response = ____
1.09

Form: Entry = CC(C)N(CC[C@H](c1ccccc1)c1cc(CCNC(=O)CCOCCOCCOCCOCCNC(=O)CCc2ccc3n2[B-](F)(F)[N+]2=C(c4ccc[nH]4)C=CC2=C3)ccc1O)C(C)C | System = SSTR4 (Homo sapiens) | NanoBRET Fold Response = ____
1.14

Form: Entry = CC(C)N(CC[C@H](c1ccccc1)c1cc(CCNC(=O)c2ccc(CNC(=O)CCc3ccc4n3[B-](F)(F)[N+]3=C(c5ccc[nH]5)C=CC3=C4)cc2)ccc1O)C(C)C | System = SSTR4 (Homo sapiens) | NanoBRET Fold Response = ____
0.93

Form: Entry = Cc1nc2n(c(=O)c1CCN1CCC(c3noc4cc(F)ccc34)CC1)CCCC2OC(=O)NCCOCCOCCOCCOCCNC(=O)CCc1ccc2n1[B-](F)(F)[N+]1=C(c3ccc[nH]3)C=CC1=C2 (stereo not drawn) | System = SSTR4 (Homo sapiens) | NanoBRET Fold Response = ____
1.04

---

# Tested On: P2RY4 (Homo sapiens, UniProt P51582)
# Construct: purchased Promega (in-house HiBiT-GPCR construct library, NanoBRET)
# Sequence (P51582 whole entry): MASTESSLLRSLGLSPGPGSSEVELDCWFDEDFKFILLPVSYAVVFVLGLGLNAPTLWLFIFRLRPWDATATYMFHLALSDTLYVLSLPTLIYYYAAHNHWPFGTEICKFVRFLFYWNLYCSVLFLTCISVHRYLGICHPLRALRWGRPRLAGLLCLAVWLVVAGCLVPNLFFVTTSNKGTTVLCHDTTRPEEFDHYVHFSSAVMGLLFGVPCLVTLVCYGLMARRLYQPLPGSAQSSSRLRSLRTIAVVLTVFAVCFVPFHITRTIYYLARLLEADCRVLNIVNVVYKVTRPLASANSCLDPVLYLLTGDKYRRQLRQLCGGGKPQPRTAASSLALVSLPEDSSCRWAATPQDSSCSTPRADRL
# Experimental Details: NanoBRET screen HiBiT-P2RY4 in HEK293
# Format: binding
# Stated Conditions: P2RY4; tracer 1μM
Measured Quantity: NanoBRET Fold Response
Output spec: single numeric token, no unit.

Form: Entry = O=C(CCOCCOCCOCCOCCNC(=O)CCc1ccc2n1[B-](F)(F)[N+]1=C(c3ccc[nH]3)C=CC1=C2)NCCCN1CCN(C2=Nc3ccccc3Oc3ccc(Cl)cc32)CC1 | System = P2RY4 (Homo sapiens, UniProt P51582) | NanoBRET Fold Response = ____
1.28

Form: Entry = N#CN=C(NCCCOc1cccc(CN2CCCCC2)c1)NCCNC(=O)CCOCCOCCOCCOCCNC(=O)CCc1ccc2n1[B-](F)(F)[N+]1=C(c3ccc[nH]3)C=CC1=C2 | System = P2RY4 (Homo sapiens, UniProt P51582) | NanoBRET Fold Response = ____
1.07

Form: Entry = COc1ccccc1N1CCN(CCCCN2C(=O)c3ccc(CNC(=O)CCOCCNC(=O)c4ccc(CNC(=O)CCc5ccc6n5[B-](F)(F)[N+]5=C(c7ccc[nH]7)C=CC5=C6)cc4)cc3C2=O)CC1 | System = P2RY4 (Homo sapiens, UniProt P51582) | NanoBRET Fold Response = ____
0.82

Form: Entry = O=C(CCc1ccc2n1[B-](F)(F)[N+]1=C(c3ccc[nH]3)C=CC1=C2)NCc1ccc(C(=O)NCCOCCC(=O)N[C@@H]2CC[C@@]3(O)[C@H]4Cc5ccc(O)c6c5[C@@]3(CCN4CC3CC3)[C@H]2O6)cc1 [Naltrexone-3-NB590] | System = P2RY4 (Homo sapiens, UniProt P51582) | NanoBRET Fold Response = ____
0.88

Form: Entry = CC(C)N(CC[C@H](c1ccccc1)c1cc(CCNC(=O)CCOCCOCCOCCOCCNC(=O)CCc2ccc3n2[B-](F)(F)[N+]2=C(c4ccc[nH]4)C=CC2=C3)ccc1O)C(C)C | System = P2RY4 (Homo sapiens, UniProt P51582) | NanoBRET Fold Response = ____
0.94

Form: Entry = Cc1nc2n(c(=O)c1CCN1CCC(c3noc4cc(F)ccc34)CC1)CCCC2OC(=O)NCCOCCOCCOCCOCCNC(=O)CCc1ccc2n1[B-](F)(F)[N+]1=C(c3ccc[nH]3)C=CC1=C2 (centres unmarked) | System = P2RY4 (Homo sapiens, UniProt P51582) | NanoBRET Fold Response = ____
0.90

Form: Entry = CC(C)N(CC[C@H](c1ccccc1)c1cc(CCNC(=O)c2ccc(CNC(=O)CCc3ccc4n3[B-](F)(F)[N+]3=C(c5ccc[nH]5)C=CC3=C4)cc2)ccc1O)C(C)C | System = P2RY4 (Homo sapiens, UniProt P51582) | NanoBRET Fold Response = ____
1.08

Form: Entry = CCCn1c(=O)c2[nH]c(-c3ccc(OCC(=O)NCCNC(=O)CCOCCNC(=O)c4ccc(CNC(=O)CCc5ccc6n5[B-](F)(F)[N+]5=C(c7ccc[nH]7)C=CC5=C6)cc4)cc3)nc2n(CCC)c1=O | System = P2RY4 (Homo sapiens, UniProt P51582) | NanoBRET Fold Response = ____
0.79

Form: Entry = Cc1cc2c(s1)Nc1ccccc1N=C2N1CCN(CCCNC(=O)CCOCCOCCOCCOCCNC(=O)CCc2ccc3n2[B-](F)(F)[N+]2=C(c4ccc[nH]4)C=CC2=C3)CC1 | System = P2RY4 (Homo sapiens, UniProt P51582) | NanoBRET Fold Response = ____
0.95

Form: Entry = O=C(CCc1ccc2n1[B-](F)(F)[N+]1=C(c3ccc[nH]3)C=CC1=C2)NCCOCCOCCNC(=O)OCCOCCN1CCN(C2=Nc3ccccc3Sc3ccccc32)CC1 | System = P2RY4 (Homo sapiens, UniProt P51582) | NanoBRET Fold Response = ____
0.84

Form: Entry = COc1ccccc1N1CCN(CCCCN2C(=O)c3ccc(CNC(=O)CCOCCOCCOCCOCCNC(=O)CCc4ccc5n4[B-](F)(F)[N+]4=C(c6ccc[nH]6)C=CC4=C5)cc3C2=O)CC1 | System = P2RY4 (Homo sapiens, UniProt P51582) | NanoBRET Fold Response = ____
1.18
